Listed here: items and their measured melting point.
State just the number; it will be interpreted in °C.

Consider the reported melting point for these compounds:
>>> print(df.to_string())
                               query_smiles  number
0  O=C(NO)c1cnc(N2CCN(C(=O)c3ccc4ccccc4c3)CC2)nc1     130
1  CN(C)S(=O)(=O)NCC1CCN(c2ncc(C(=O)NO)cn2)CC1     182

melting point reported for this compound NS(=O)(=O)N1CCN(c2ncc(C(=O)NO)cn2)CC1 : 212

====

Assay system: histone deacetylase (HDAC), HeLa nuclear extracts
Assay info: In vitro assay for inhibition of histone deacetylase
Format: biochemical
Parameters: key: pIC50 = negative log of IC50
Settings: [3H]acetylated histone H4 peptide substrate, 30 min
Quantity: Enzyme activity pIC50
Provide a numeric answer; units are not to be included.

Consider the reported Enzyme activity pIC50 for these compounds:
>>> print(df.to_string())
                               query_smiles  number
0  O=C(NO)c1cnc(N2CCN(C(=O)c3cccc4ccccc34)CC2)nc1   7.073
1  CN(C)S(=O)(=O)N1CCN(c2ncc(C(=O)NO)cn2)CC1   6.615

Then this compound:
Enzyme activity pIC50 reported for this compound CCCCCCCCS(=O)(=O)N1CCN(c2ccc(C(=O)NO)cc2)CC1 : 6.173
